# Test system: glutathione (GSH)
# Experiment: Reactivity Profiling with Glutathione (GSH), half-life by HPLC
# Assay context: 5 mM glutathione (GSH) in IMDM with 10% FBS
Test readout: half-life at 25 μM

Previously resolved entries follow.
Compound | Result
CC(C)(C)c1cc(CN(C(=O)CN(Cc2ccccc2F)S(=O)(=O)c2c(F)c(F)c(F)c(F)c2F)c2ccc(C(=O)O)cc2OC2CC(F)(F)C2)cc(C2CC2)c1 [Compound 1093] | 9.23 to 1670 h
CC(C)(C)c1cc(CN(C(=O)CN(Cc2c(F)cc(F)cc2F)S(=O)(=O)c2c(F)c(F)c(F)c(F)c2F)c2ccc(C(=O)O)cc2C2CC2)cc(C2CC2)c1 [Compound 1123] | 9.23 to 1670 h

**Query** What measured half-life at 25 μM goes with CC(C)Oc1cc(C(=O)O)ccc1N(Cc1cc(C2CC2)cc(C(C)(C)C)c1)C(=O)CN(Cc1ccc(F)cc1Cl)S(=O)(=O)c1c(F)c(F)c(F)c(F)c1F [Compound 1228] ?
**Result** 9.23 to 1670 h

**Query** What do you have for CN(C)c1cc(N(Cc2cc(C3CC3)cc(C(C)(C)C)c2)C(=O)CN(Cc2ccccc2F)S(=O)(=O)c2c(F)c(F)c(F)c(F)c2F)ccc1C(=O)O [Compound 1071] ?
**Result** 2.37 to 4.12 h

**Query** What do you have for COc1cc(C(=O)O)ccc1N(Cc1cc(C2CC2)cc(C(C)(C)C)c1)C(=O)CN(Cc1ccc(Cl)cc1)S(=O)(=O)c1c(F)c(F)c(F)c(F)c1F [Compound 1016] ?
**Result** 4.12 to 9.23 h

----------
The entries below come with measured half-life at 25 μM values attached.
# Tested on: glutathione (GSH)
# Experiment: Reactivity Profiling with Glutathione (GSH), half-life by HPLC
# Assay context: 5 mM glutathione (GSH) in IMDM with 10% FBS

Compound | Target or test system | half-life at 25 μM
CN(C)c1ccccc1CN(CC(=O)N(Cc1cc(C2CC2)cc(C(C)(C)C)c1)c1ccc(C(=O)O)cc1OC1CC1)S(=O)(=O)c1c(F)c(F)c(F)c(F)c1F [Compound 1236] | glutathione (GSH) | 9.23 to 1670 h
CC(C)(C)c1cc(CN(C(=O)CN(Cc2ccc(C(F)(F)F)cc2)S(=O)(=O)c2c(F)c(F)c(F)c(F)c2F)c2ccc(C(=O)O)cc2OC2CC2)cc(C2CC2)c1 [Compound 1136] | glutathione (GSH) | 9.23 to 1670 h

--- query ---
**Query** What measured half-life at 25 μM goes with Cc1cc(C(=O)O)ccc1N(Cc1cc(C2CC2)cc(C2CC2)c1)C(=O)CN(Cc1c(F)cc(F)cc1F)S(=O)(=O)c1c(F)c(F)c(F)c(F)c1F [Compound 1218] ?
**Result** 0.00167 to 2.37 h

----------
# Tested on: glutathione (GSH)
# Experiment: Reactivity Profiling with Glutathione (GSH), half-life by HPLC
# Assay context: 5 mM glutathione (GSH) in IMDM with 10% FBS
The entries below come with measured half-life at 25 μM values attached.

Previously resolved entries follow.
Given smiles | Result
CN(C)c1cc(C(=O)O)ccc1N(Cc1cc(C2CC2)cc(C2CC2)c1)C(=O)CN(Cc1cnccc1C(F)(F)F)S(=O)(=O)c1c(F)c(F)c(F)c(F)c1F | 0.1 to 142 min
CCOc1cc(C(=O)O)ccc1N(Cc1cc(C2CC2)cc(C2CC2)c1)C(=O)CN(Cc1ccccc1C#N)S(=O)(=O)c1c(F)c(F)c(F)c(F)c1F | 0.1 to 142 min

**Query** What measured half-life at 25 μM goes with COc1cc(C(=O)O)ccc1N(Cc1cc(C2CC2)cc(C(C)(C)C)c1)C(=O)CN(Cc1cccc(C(F)(F)F)n1)S(=O)(=O)c1c(F)c(F)c(F)c(F)c1F ?
**Result** 0.1 to 142 min

**Query** What do you have for COc1cc(C(=O)O)ccc1N(Cc1cc(C2CC2)cc(C(C)(C)C)c1)C(=O)CN(Cc1ccc(C(F)(F)F)nc1)S(=O)(=O)c1c(F)c(F)c(F)c(F)c1F ?
**Result** 142 to 247 min

**Query** What do you have for COc1cc(C(=O)O)ccc1N(Cc1cc(C2CC2)cc(C(C)(C)C)c1)C(=O)CN(Cc1ncc(Cl)cc1F)S(=O)(=O)c1c(F)c(F)c(F)c(F)c1F ?
**Result** 0.1 to 142 min

**Query** What do you have for O=C(O)c1ccc(N(Cc2cc(C3CC3)cc(C3CC3)c2)C(=O)CN(Cc2ccc(F)cc2Cl)S(=O)(=O)c2c(F)c(F)c(F)c(F)c2F)c(OC2CCCC2)c1 ?
**Result** 554 to 100000 min

**Query** What do you have for CC(C)(C)c1cc(CN(C(=O)CN(Cc2ccc(F)cc2Cl)S(=O)(=O)c2c(F)c(F)c(F)c(F)c2F)c2ccc(C(=O)O)cc2OC2CC2)cc(C2CC2)c1 ?
**Result** 554 to 100000 min

**Query** What do you have for O=C(O)c1ccc(N(Cc2cc(C3CC3)cc(C3CC3)c2)C(=O)CN(Cc2c(F)cc(F)cc2F)S(=O)(=O)c2c(F)c(F)c(F)c(F)c2F)c(OC2CC2)c1 ?
**Result** 247 to 554 min

**Query** What do you have for CC(C)(C)c1cc(CN(C(=O)CN(Cc2ccc(Cl)cc2)S(=O)(=O)c2c(F)c(F)c(F)c(F)c2F)c2ccc(C(=O)O)cc2O)cc(C2CC2)c1 ?
**Result** 247 to 554 min

**Query** What do you have for O=C(O)c1ccc(N(Cc2cc(C3CC3)cc(C3CC3)c2)C(=O)CN(Cc2cnccc2C(F)(F)F)S(=O)(=O)c2c(F)c(F)c(F)c(F)c2F)c(OC2CC2)c1 ?
**Result** 142 to 247 min

**Query** What do you have for CC(C)(C)c1cc(CN(C(=O)CN(Cc2ccccc2OC(F)(F)F)S(=O)(=O)c2c(F)c(F)c(F)c(F)c2F)c2ccc(C(=O)O)cc2OC2CC2)cc(C2CC2)c1 ?
**Result** 554 to 100000 min
